Origin of measurements: PubChem BioAssay AID1159580

EXPERIMENT SUMMARY: chemical genetic growth profiling, strain panel (AID 1159580);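 note: tested at 20 µM; growth read once vehicle control cultures reached saturation at 30 °C; 1 = growth at the plate median or of vehicle wells; lower values mean less growth of the strain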
PARTICULARS: S. cerevisiae deletion strains, growth OD, locus YJL168C, strain set2
The whole screen tested about 5,500 compounds, of which about 2,000 (36%) were called active. About 18% were inconclusive and are not listed. Cut-off read from the data, not from the text of the source: active = normalized growth mostly below about 0.91 (no sharp cut-off); inconclusive = no clear call, values can overlap the other calls; inactive = mostly above about 0.92. The list shows a part of the results. Where a SMILES comes first, the peptide text is derived from it.
Write down the outcome that applies. Available outcomes: active, inactive

Solved cases (5 shown):
| COMPOUND | ASSIGNED LABEL |
| --- | --- |
| CC(=O)N[C@@H](CCC(=O)O)C(=O)O | inactive |
| CC(=O)N[C@@H](CC(=O)O)C(=O)N[C@@H](CCC(=O)O)C(=O)O (Ac-Asp-Glu-OH) | inactive |
| NCCCC(=O)O | inactive |
| CN[C@@H]1C(OC2[C@H](O[C@H]3[C@H](O)[C@@H](O)[C@H](N=C(N)N)[C@@H](O)[C@@H]3N=C(N)N)OC(C)[C@]2(O)CO)OC(CO)C(O)C1O (stereo not given in full) | inactive |
| COc1ccc2c(=O)c(OC)c(-c3ccccc3)oc2c1 | inactive |

Exercise: Hi, do you know how "COc1ccc2oc(-c3ccccc3)c(OC)c(=O)c2c1" came out in this test?
Solution: active

Exercise: Per the assay record, what outcome was assigned to CCN1C[C@@]2(COC)C3[C@@H](OC)[C@H]4[C@@H]1[C@]3(C(OC)C[C@H]2O)C1C[C@@]2(O)[C@H](OC(=O)c3ccccc3)C1[C@]4(OC(C)=O)[C@@H](O)[C@@H]2OC (stereo not given in full) ?
Solution: inactive

Exercise: What did the test return for NCC[C@@H](O)C(=O)N[C@@H]1C[C@H](N)[C@@H](O[C@H]2O[C@H](CN)[C@@H](O)[C@H](O)[C@H]2O)[C@H](O)[C@H]1O[C@H]1O[C@H](CO)[C@@H](O)[C@H](N)C1O (stereo not given in full) ?
Solution: inactive

Exercise: What classification did Cc1cccc(C)c1NC(=O)C1CCCCN1C (stereo not given) end up with in this test?
Solution: inactive

Exercise: Short answer needed: outcome of this test for "NCCCCC(=O)O" ?
Solution: inactive

----------
Would you mind telling me the reported normalized growth of each entry?
EXPERIMENT SUMMARY: chemical genetic growth profiling, strain panel (AID 1159580);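 note: tested at 20 µM; growth read once vehicle control cultures reached saturation at 30 °C; 1 = growth at the plate median or of vehicle wells; lower values mean less growth of the strain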
PARTICULARS: S. cerevisiae deletion strains, growth OD, locus YLR102C, strain apc9, hits give low values
Out of some 5,500 compounds screened, about 2,000 (36%) were called active. About 18% were inconclusive and are not listed. Some of the results follow.
One number for each entry.

The following compounds have reported results that may help.
| COMPOUND | MEASURED QUANTITY | TEST RESULT |
| --- | --- | --- |
| NCCCCNCCCN | normalized growth | 0.991 |
| CC(=O)OCC(=O)[C@@]1(O)CCC2C3CCC4=CC(=O)C=CC4(C)C3[C@@H](O)C[C@@]21C (stereo partly specified) | normalized growth | 1.01 |
| CC(C)c1nc(N(C)S(C)(=O)=O)nc(-c2ccc(F)cc2)c1/C=C/[C@@H](O)C[C@@H](O)CC(=O)O | normalized growth | 1.02 |
| O=C(O)C(O)C(O)C(O)C(O)C(=O)O (stereo unspecified) | normalized growth | 0.99 |
| Clc1ccc(CSC(Cn2ccnc2)c2ccc(Cl)cc2Cl)cc1 (stereo unspecified) | normalized growth | 0.0588 |
| CC(C)(S)[C@@H](N)C(=O)O | normalized growth | 0.992 |
| C1N2CN3CN1CN(C2)C3 | normalized growth | 0.968 |
| COc1cc(OC)c2c(=O)cc(-c3ccccc3)oc2c1 | normalized growth | 0.958 |
| CC(=O)NCCc1c[nH]c2ccc(O)cc12 | normalized growth | 0.999 |
| CN1CCC[C@@H]1CCO[C@](C)(c1ccccc1)c1ccc(Cl)cc1 | normalized growth | 0.997 |

Exercise: Item NC(C(=O)O)C(O)C(=O)O (stereo unspecified) has what recorded normalized growth?
Solution: 1.04
